Below, each entry is listed with its recorded protein stability index.
B1: STEAP1 (parent)
chain: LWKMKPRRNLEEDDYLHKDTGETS

Variants of: B1
testMethodNotes: protein stability index of a GFP-peptide fusion (GPS, HEK-293T) (PSI 1-6); higher = more stable;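 note: lentivirally expressed fusions sorted by FACS into six bins by GFP to DsRed ratio, PSI derived from sequencing read proportions per bin multiplied by bin number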
testContext: c terminus: a fixed tail appended
Format: numeric value only, no unit, no commentary.

| sequenceCode | valueReported |
| --- | --- |
| LAKMKPRRNLEEDDYLHKDTGETS | 5.25 |
| LWKMKPRRNLEEDDYLHKDTGETE | 4.52 |
| LWKMKPRRNLEEDDYLHKDTIETS | 3.31 |
| LWKMKPRRNLEEDDYLHKDTGPTS | 3.98 |
| LWKMKPRRNLYEDDYLHKDTGETS | 3.09 |
| LWKMKPRRNLEEDDYLHKDTGNTS | 4.22 |

# protein stability index (variant: LWKMKPRRNLEEDDYLHKSTGETS ) is 3.48

Sample LWKMKPRRYLEEDDYLHKDTGETS ; protein stability index observed: 4.07

Consider KWKMKPRRNLEEDDYLHKDTGETS . Its measured protein stability index is 4.57

Entry LWKDKPRRNLEEDDYLHKDTGETS ; protein stability index = 5.16

protein stability index reported for this variant LWKMKPRRNLEEDDYLHKMTGETS : 3.81

Form field protein stability index, entry LCKMKPRRNLEEDDYLHKDTGETS : 5.08

Summary for this variant, LWKMKPRRNLEEDDYLCKDTGETS : protein stability index is 4.32

Looking up LWKMKPRRNLEEDDYLHKLTGETS , I see its protein stability index listed as 3.33
